- studySystem: proMMP9(20-445;ΔFnII) (SEQ ID NO:6) (Homo sapiens, UniProt P14780, DEL216-390)
- Construct: amino acid pairs including: 29-215/391-444, 67-215/391-444, and 20-215/391-445, respectively; start methionine (N)
- measurementNotes: ThermoFluor binding assay with proMMP9(20-445;ΔFnII)
measure: Kd

Here is how some molecules turned out for Kd.
>>> df
                       smilesrepresentation  observed
0  COc1ccccc1Nc1nc(-c2sc(N(C)C(C)=O)nc2C)cs1   > 11 µM
1  COc1ccccc1Nc1nc(-c2sc(-c3cnccn3)nc2C)cs1   > 95 µM
2  COc1ccc(Nc2nc(-c3sc(NC(C)=O)nc3C)cs2)c(OC)c1   > 35 µM
3          COc1ccccc1Nc1nc(-c2oc(C)nc2C)cs1   > 95 µM
4  Cc1nc(C)c(-c2csc(Nc3ccccc3OC(F)(F)F)n2)s1   > 95 µM

Here are 2 molecules. What values of Kd were reported for them?
1. COc1ccc(OC)c(Nc2nc(-c3c(C)nc4ccccn34)cs2)c1
2. COc1ccccc1Nc1nc(-c2sc(NC(C)C)nc2C)cs1

Result:
1: > 16 µM; 2: 5.16 µM

Please report Kd for every entry that follows.
1. COc1ccc(OC)c(Nc2nc(-c3sc(NC(C)=O)nc3C)cs2)c1
2. CC(=O)Nc1nc(C)c(-c2csc(Nc3ccccc3F)n2)s1

Result:
1. 5.07 µM
2. > 18 µM

* * *

- studySystem: proMMP9(20-445;ΔFnII) (SEQ ID NO:6) (Homo sapiens, UniProt P14780, DEL216-390)
- Construct: amino acid pairs including: 29-215/391-444, 67-215/391-444, and 20-215/391-445, respectively; start methionine (N)
- measurementNotes: ThermoFluor binding assay with proMMP9(20-445;ΔFnII)
pKd: −log10 of the molar value.
Param threshold (5) applies to pKd; output Y when value >= threshold, N when value < threshold.

>>> print(df.to_string())
                       smilesrepresentation  assignedcategory
0      COc1ccc(Cl)cc1Nc1nc(-c2sc(N)nc2C)cs1                 Y
1  COc1ccc(F)cc1Nc1nc(-c2ccc(N3CCN(C4CC4)CC3)nc2)cs1                 N
2     COc1ccccc1Nc1nc(-c2c[nH]c3ncccc23)cs1                 N
3  COc1ccc(Cl)cc1Nc1nc(-c2sc(NC(C)=O)nc2C)cs1                 N
4  CC(=O)Nc1nc(C)c(-c2csc(Nc3ccccc3Cl)n2)s1                 Y
5    Cc1nc(C)c(-c2csc(Nc3ccccc3OC(C)C)n2)s1                 N

Please examine the following record next.
Problem: Could you tell me if the measured pKd of CCc1nc(N)sc1-c1nc(Nc2ccccc2OC)sc1C reaches 5 or more?
Result: N

* * *

- studySystem: full-length proMMP9(1-707) activation by catalytic MMP3 (Homo sapiens, UniProt P14780, R574P)
- measurementNotes: proMMP9/MMP3 P126 Activation Assay
- Type: biochemical
- Set-up: made in house; host or cells: E. coli (MMP3)
- appliedConditions: proMMP9 from HEK293 cells
For each entry below, report its pIC50 value.
One number for each entry, as −log10 of the molar value.

Recorded pIC50, per entry:
In [3]: df
Out[3]:
                       smilesrepresentation  observed
0      COc1ccc(Cl)cc1Nc1nc(-c2sc(N)nc2C)cs1      5.68
1  COc1ccc(Cl)cc1Nc1nc(-c2sc(NC(C)=O)nc2C)cs1      6.28
2  CC(=O)Nc1nc(C)c(-c2csc(Nc3cc(F)ccc3OC(C)C)n2)s1      5.44

Below is a list of compounds. For each, state its recorded pIC50.
1. Cc1nc(C)c(-c2csc(Nc3ccccc3OC(C)C)n2)s1
2. COc1ccc(F)cc1Nc1nc(-c2sc(C3CCN(C)CC3)nc2C)cs1

Result:
1: 5.60; 2: 6.89

Problem: Look up and state reported pIC50 for COc1ccc(F)cc1Nc1nc(-c2sc(NC(C)=O)nc2C)c(Br)s1
Result: 5.59

* * *

Please respond with reported pKd for every item in the list.
- studySystem: proMMP9(20-445;ΔFnII) (SEQ ID NO:6) (Homo sapiens, UniProt P14780, DEL216-390)
- Construct: amino acid pairs including: 29-215/391-444, 67-215/391-444, and 20-215/391-445, respectively; start methionine (N)
- Sequence (P14780 with tags, fused parts or gaps DEL216-390): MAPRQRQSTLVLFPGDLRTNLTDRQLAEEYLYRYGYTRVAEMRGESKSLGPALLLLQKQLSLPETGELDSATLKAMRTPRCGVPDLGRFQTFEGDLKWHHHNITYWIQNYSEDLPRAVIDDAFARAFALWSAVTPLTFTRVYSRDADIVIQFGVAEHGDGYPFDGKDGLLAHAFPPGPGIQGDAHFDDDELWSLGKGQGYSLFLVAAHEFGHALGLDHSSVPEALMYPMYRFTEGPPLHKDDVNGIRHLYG
- measurementNotes: ThermoFluor binding assay with proMMP9(20-445;ΔFnII)
Give bare numbers, as −log10 of the molar value.

>>> print(df.to_string())
                       smilesrepresentation  observed
0    COc1ccc(F)cc1Nc1nc(-c2c(C)nc(C)n2C)cs1      4.54
1  COc1ccc(F)cc1Nc1nc(-c2sc(NC(C)=O)nc2C)cs1      6.04
2   COc1ccccc1Nc1nc(-c2sc(N)nc2C(F)(F)F)cs1      4.91
3           Brc1ccc(Nc2nc(-c3cccnc3)cs2)cn1      5.24
4  COc1ccc(F)cc1Nc1nc(-c2sc(NC(C)=O)nc2C)c(Br)s1      5.54

Hey, can you go through the list below and give me pKd for every item?
1. COc1ccc(F)cc1Nc1nc(-c2sc(N)nc2C)cs1
2. Cc1nc(C)c(-c2csc(Nc3cccc(C(N)=O)c3)n2)s1
3. CCC(=O)Nc1nc(C)c(-c2csc(Nc3ccccc3OC)n2)s1
4. COc1ccc(OC)c(Nc2nc(-c3c[nH]c4ncccc34)cs2)c1
5. COc1ccc(F)cc1Nc1nc(-c2sc(C3CCN(C)CC3)nc2C)cs1
6. COc1ccccc1Nc1nc(-c2ccncc2)cs1
7. COc1ccccc1Nc1nc(-c2c(C)nc3ccccn23)cs1

Result:
[5.77, 4.72, 4.87, 4.59, 6.06, 4.77, 4.19]

Give pKd for each of the items listed below.
1. COc1ccccc1Nc1nc(-c2sc(C)nc2C)cs1
2. COc1ccccc1Nc1nc(-c2cnc3cnccn23)cs1

Result:
1: 4.32; 2: 4.75

* * *

- studySystem: full-length proMMP9(1-707) activation by catalytic MMP3 (Homo sapiens, UniProt P14780, R574P)
- measurementNotes: ProMMP9/MMP3 DQ Gelatin Activation Assay;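 further: readout is fluorescence of quenched fluorescein gelatin cut by activated MMP9, 30 min activation at 37 °C, inhibition relative to DMSO-only controls with EDTA as blank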
- Assay type: biochemical
- Design: made in house; host or cells: COS-1 (proMMP9); E. coli (MMP3)
- appliedConditions: proMMP9 from COS-1 cells; read-out: ProMMP9/MMP3 DQ gel, IC50
measure: IC50

Would you please look over these solved cases?
>>> df
                    smilesrepresentation  measure  observed
0      COc1ccc(Cl)cc1Nc1nc(-c2cccnc2)cs1     IC50   > 20 µM
1  COc1ccccc1Nc1nc(-c2sc(NC(C)C)nc2C)cs1     IC50   > 20 µM

Now take the following compound into account.
Problem: Identify IC50 associated with the compound COc1ccccc1Nc1nc(-c2ccc(-c3ccccc3)s2)cs1
Result: > 20 µM

* * *

- studySystem: proMMP9(20-445;ΔFnII) (SEQ ID NO:6) (Homo sapiens, UniProt P14780, DEL216-390)
- Construct: amino acid pairs including: 29-215/391-444, 67-215/391-444, and 20-215/391-445, respectively; start methionine (N)
- Sequence (P14780 with tags, fused parts or gaps DEL216-390): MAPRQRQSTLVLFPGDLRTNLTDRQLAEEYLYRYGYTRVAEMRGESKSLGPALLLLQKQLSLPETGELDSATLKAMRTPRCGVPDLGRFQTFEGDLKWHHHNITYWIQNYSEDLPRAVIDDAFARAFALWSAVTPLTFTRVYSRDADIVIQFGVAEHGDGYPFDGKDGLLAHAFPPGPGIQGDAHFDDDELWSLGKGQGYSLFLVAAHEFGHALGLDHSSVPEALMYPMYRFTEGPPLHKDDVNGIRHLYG
- measurementNotes: ThermoFluor binding assay with proMMP9(20-445;ΔFnII)
pKd: −log10 of the molar value.
So I've got a bunch of compounds here, and I need their pKd values.

Study these solved cases before continuing.
>>> print(df.to_string())
                                   compound  observed
0  COc1ccccc1Nc1nc(C2(C)CC3(CC(C)OC3=O)C(=O)O2)cs1 (stereo not shown) [Example 49]    < 4.77
1  COc1ccc(F)cc1Nc1nc(-c2cccnc2)cs1 [Example 16]    < 4.02
2  COc1ccccc1Nc1nc(C2(C)CC3(CC(C)(C)OC3=O)C(=O)O2)cs1 (stereo not shown) [Example 69]    < 4.82
3  COc1ccc(Cl)cc1Nc1nc(-c2cccnc2)cs1 [Example 56]    < 4.15
4  COc1ccccc1Nc1nc(-c2cccnc2)cs1 [Example 55]    < 4.02

For each of the compounds below, state pKd.
1. CC(=O)Nc1nc(C)c(-c2csc(Nc3ccccc3OCC3CC3)n2)s1 [Example 19]
2. Cc1nc(C)c(-c2csc(Nc3cc(F)ccc3OC(C)C)n2)s1 [Example 13]

Result:
1: < 4.28; 2: < 4.02
